Test system: rabbit serum obtained by immunizing a rabbit with the SARS-CoV strain Frankfurt 1
Format: binding
Design: unit not given here
Task for the reader: assign each of the following sequences its reported Binding of a rabbit serum to linear peptides.
Answers are plain numbers.

Study these solved cases before continuing.
chain_sequence	obs_value
NVSLVKPTVYVYSRV	0.5
LACLCKHKKVSTNLC	0.3
VTIYSHLLLVAAGME	0.1
STQITTDTGIENATF	0.1
CLCKHKKVSTNLCTH	0.4

Provide reported Binding of a rabbit serum to linear peptides for each item, in the same order as listed.
1. FMMSRRRLLACLCKH
2. LCKHKKVSTNLCTHS
3. AAGMEAQFLYLYALI
4. TEGDGISTPKLKEDY
5. YSEDRHSGVKDYVVV
6. PASTVHATATIPLQA

A)
1. 0.4
2. 0.3
3. 0.1
4. 0.1
5. 0.1
6. 0.9

Provide reported Binding of a rabbit serum to linear peptides for each item, in the same order as listed.
1. LSLHKLLQTLVLKML
2. NASPASTVHATATIP
3. IQLSLLKVTAFQHQN
4. DTGIENATFFIFNKL
5. MDPIYDEPTTTTSVP
6. TKLVVILRIGTQVLK
7. QELLIQQWIQFMMSR
8. GVAFLAVFQSATKII

A)
0.3
0.6
0.6
0.1
0.1
0.3
0.3
0.9

* * *

System: antibodies in sera from SARS patients (sera 1a, 1b, 2, 6, 37, 62, London, SARS-yellow, SARS-green)
Assay type: binding, human
measured_metric: Binding of serum 1b to looped/cyclic peptide (PEPSCAN-ELISA)

chain_sequence	obs_value
PFGWLVIGVAFLAVF	0.4

Provide reported Binding of serum 1b to looped/cyclic peptide (PEPSCAN-ELISA) for each item, in the same order as listed.
1. ALIYFLQCINACRII
2. IALNKRWQLALYKGF
3. FVTIYSHLLLVAAGM
4. GVAFLAVFQSATKII

A)
1: 0.2; 2: 0.4; 3: 0.3; 4: 0.4

* * *

Task for the reader: assign each of the following sequences its reported Binding of serum 1a to linear peptides of protein X1 of SARS-CoV Urbani.
System: antibodies in sera from SARS patients (sera 1a, 1b, 2, 6, 37, 62, London, SARS-yellow, SARS-green)
Assay type: binding, human
Numbers only.

Study these solved cases before continuing.
chain_sequence	obs_value
TIPLQASLPFGWLVI	0.8
FQSATKIIALNKRWQ	0.8
HTIDGSSGVANPAMD	0.7
VYYQLESTQITTDTG	0.6
LVAAGMEAQFLYLYA	0.8
VTIYSHLLLVAAGME	0.8
TIVVTEGDGISTPKL	0.6
GYFTEVYYQLESTQI	0.7

Provide reported Binding of serum 1a to linear peptides of protein X1 of SARS-CoV Urbani for each item, in the same order as listed.
1. PNVQIHTIDGSSGVA
2. QLALYKGFQPICNLL

A)
1: 0.6; 2: 0.6

* * *

Test system: antibodies in sera from SARS patients (sera 1a, 1b, 2, 6, 37, 62, London, SARS-yellow, SARS-green)
Assay type: binding, human
measured_metric: Binding of serum 1b to linear peptides of protein X4 of SARS-CoV Urbani
Answers are plain numbers.

Study these solved cases before continuing.
chain_sequence	obs_value
CTSTHFAFACADGTR	0.7
LIVAALVFLILCFTI	0.5
RHTYQLRARSVSPKL	0.6

With those in mind, consider the next sequence.
Q) Suppose we examine the sequence DGTRHTYQLRARSVS ; what Binding of serum 1b to linear peptides of protein X4 of SARS-CoV Urbani value has been reported?
A) 0.5
